Molecular target: UniProt Q8NER1
Experiment: Human TRPV1 heat-based assay (hHeat-CHO)
Assay type: cell-based
Details: hTRPV1/CHO cells, temperature ramp 25° C. to 45° C.; mean ± SEM (number of trials); read-out: TRPV1 IC50 Potency, Human Heat CHO (hHeat-CHO)
Description: Human TRPV1 Heat-Based Assay: CHO cells stably expressing human TRPV1 (hTRPV1) were used. […] The plates were then placed inside an ABI7500 Fast Real-Time PCR instrument (Applied Biosystems) to read fluorescence at different temperatures using 7500 software, version 2.0.2 (Applied Biosystems). […] [Ca^2+]i response of hTRPV1/CHO cells to heat was determined as: [fluorescence read at 45° C.−fluorescence read at 25° C.]. […]
pIC50: −log10 of the molar value.
quantity: pIC50

As a guide, the following entries are already answered.
molecule | pIC50
Cc1ccc2nc(NC(=O)c3ccc(-c4ncc(C[C@@H](O)CO)cc4F)cc3)sc2c1 [Compound G159a] | 6.06
O=C(Nc1nc2ccccc2s1)c1ccc(-c2ncc(C[C@H](O)CO)cc2F)cc1 [Compound G155b] | 6.24

a. O=C(Nc1nc2ccc(F)cc2s1)c1ccc(-c2ncc(C[C@@H](O)CO)cc2F)cc1 [Compound G158a]
b. O=C(Nc1nc2ccccc2s1)c1ccc(-c2ncc(C[C@@H](O)CO)cc2F)cc1 [Compound G155a]
[in] Looking only at measured pIC50, which entry is lower, a or b ? Write down the label attached to your selection.
[out] a

###

target: UniProt Q8NER1; assay: pH-based assay, Protocol 2 (hpH-CHO); format: cell-based; conditions: TRPV1/CHO cells, pH 5.0-5.1; mean ± SEM (number of trials); read-out: TRPV1 IC50 Potency, Human pH CHO (hpH-CHO)
pIC50: −log10 of the molar value.
quantity: pIC50

As a guide, the following entries are already answered.
compound | pIC50
O=C(Nc1nc2ccccc2s1)c1ccc(-c2ncc(C[C@H](O)CO)cc2F)cc1 [Compound G155b] | 7.35
O=C(Nc1nc2ccccc2s1)c1ccc(-c2ncc(C[C@@H](O)CO)cc2F)cc1 [Compound G155a] | 7.35

I. O=C(Nc1nc2ccc(F)cc2s1)c1ccc(-c2ncc(C[C@@H](O)CO)cc2F)cc1 [Compound G158a]
II. Cc1cc2nc(NC(=O)c3ccc(-c4ncc(C[C@@H](O)CO)cc4F)cc3)sc2cc1C [Compound G215a]
[in] Param pair: I , II . Output: the one whose pIC50 is numerically greater. Write down the label attached to your selection.
[out] I

###

Molecular target: human TRPV1 (Homo sapiens (Human), UniProt Q8NER1)
Sequence (Q8NER1 whole entry, looked up): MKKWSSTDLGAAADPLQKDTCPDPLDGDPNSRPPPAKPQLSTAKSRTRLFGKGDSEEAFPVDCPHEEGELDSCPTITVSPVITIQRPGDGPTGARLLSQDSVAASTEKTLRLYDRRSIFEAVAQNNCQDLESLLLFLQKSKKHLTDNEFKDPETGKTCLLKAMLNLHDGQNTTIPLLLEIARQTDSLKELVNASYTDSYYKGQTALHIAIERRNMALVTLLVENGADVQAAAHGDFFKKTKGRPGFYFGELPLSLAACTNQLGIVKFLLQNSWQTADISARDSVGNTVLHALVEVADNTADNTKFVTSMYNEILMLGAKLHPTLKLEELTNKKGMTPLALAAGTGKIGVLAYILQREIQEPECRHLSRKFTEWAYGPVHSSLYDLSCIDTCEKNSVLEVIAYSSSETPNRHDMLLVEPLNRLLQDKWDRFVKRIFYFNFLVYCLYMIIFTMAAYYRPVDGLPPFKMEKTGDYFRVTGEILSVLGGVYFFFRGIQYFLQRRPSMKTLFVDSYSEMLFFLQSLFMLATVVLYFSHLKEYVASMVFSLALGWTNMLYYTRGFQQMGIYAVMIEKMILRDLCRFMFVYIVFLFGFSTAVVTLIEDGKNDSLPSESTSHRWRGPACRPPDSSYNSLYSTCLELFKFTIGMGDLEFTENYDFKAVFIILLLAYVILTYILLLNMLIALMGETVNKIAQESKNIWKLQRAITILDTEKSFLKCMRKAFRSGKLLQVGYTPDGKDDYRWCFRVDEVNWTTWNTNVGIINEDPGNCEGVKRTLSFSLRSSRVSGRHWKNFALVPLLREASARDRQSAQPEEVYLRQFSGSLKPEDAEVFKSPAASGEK
Experiment: Capsaicin-based assay, Protocol 2 (hCAP-CHO)
Format: cell-based
Settings: TRPV1/CHO cells, 100 nM capsaicin; mean ± SEM (number of trials); read-out: TRPV1 IC50 Potency, Human Capsaicin CHO (hCAP-CHO)
Method: For Protocol 2, a Chinese Hamster Ovary cell line (CHO) that has been engineered to constitutively express human recombinant TRPV1 was used (TRPV1/CHO cells). The TRPV1/CHO cell line was generated as described below. One day prior to assay, TRPV1/CHO cells were seeded in 96-well clear-bottom black plates (20,000 cells/well) in growth media. […] The plates were then transferred to a Fluorescence Imaging Plate Reader (Molecular Devices). […]
pIC50: −log10 of the molar value.
quantity: pIC50

As a guide, the following entries are already answered.
compound | pIC50
O=C(Nc1nc2ccc(F)cc2s1)c1ccc(-c2ncc(C[C@@H](O)CO)cc2F)cc1 [Compound G158a] | 7.11
O=C(Nc1nc2ccccc2s1)c1ccc(-c2ncc(C[C@@H](O)CO)cc2F)cc1 [Compound G155a] | 7.50
O=C(Nc1nc2ccc(Cl)cc2s1)c1ccc(-c2ncc(C[C@@H](O)CO)cc2F)cc1 [Compound G156a] | 7.54

I. Cc1ccc2nc(NC(=O)c3ccc(-c4ncc(C[C@@H](O)CO)cc4F)cc3)sc2c1 [Compound G159a]
II. O=C(Nc1nc2ccccc2s1)c1ccc(-c2ncc(C[C@H](O)CO)cc2F)cc1 [Compound G155b]
III. Cc1cc2nc(NC(=O)c3ccc(-c4ncc(C[C@@H](O)CO)cc4F)cc3)sc2cc1C [Compound G215a]
[in] // smallest pIC50 at index 0, largest at the end # format: label list in the order the request specifies
[out] III, II, I

// provenance: patent US9394293B2
